Assay: Stability in hank's balanced salt solution at 15 uM after 20 mins
Type: physicochemical
Details: read-out: Stability
measured_quantity: remaining at 20 min, 15 µM (%)
Give bare numbers, in %.

Guide cases for remaining at 20 min, 15 µM, answers given:
>>> reported("COc1ccc(-c2cc(=O)c3c(O)cc(O)cc3o2)cc1O")
100
>>> reported("COc1ccc([C@@H]2CC(=O)c3c(O)cc(O[C@@H]4O[C@H](CO[C@@H]5O[C@@H](C)[C@H](O)[C@@H](O)[C@H]5O)[C@@H](O)[C@H](O)[C@H]4O)cc3O2)cc1O")
99.8
>>> reported("COc1ccc([C@@H]2CC(=O)c3c(O)cc(O)cc3O2)cc1O")
94.5

Here are 2 compounds. What values of remaining at 20 min, 15 µM were reported for them?
1. C[C@@H]1O[C@@H](O[C@H]2[C@H](Oc3cc(O)c4c(c3)O[C@H](c3ccc(O)cc3)CC4=O)O[C@H](CO)[C@@H](O)[C@@H]2O)[C@H](O)[C@H](O)[C@H]1O
2. COc1ccc(-c2cc(=O)c3c(O)cc(O[C@@H]4O[C@H](CO[C@@H]5O[C@@H](C)[C@H](O)[C@@H](O)[C@H]5O)[C@@H](O)[C@H](O)[C@H]4O)cc3o2)cc1O

A:
1. 98.3
2. 103
